Where these numbers come from: patent EP4786492A1

- experimental.target: human delta-like ligand 3 (DLL3) on SHP77 cells (human) (UniProt Q9NYJ7)
- Sequence (Q9NYJ7 27-618, stated change not applied): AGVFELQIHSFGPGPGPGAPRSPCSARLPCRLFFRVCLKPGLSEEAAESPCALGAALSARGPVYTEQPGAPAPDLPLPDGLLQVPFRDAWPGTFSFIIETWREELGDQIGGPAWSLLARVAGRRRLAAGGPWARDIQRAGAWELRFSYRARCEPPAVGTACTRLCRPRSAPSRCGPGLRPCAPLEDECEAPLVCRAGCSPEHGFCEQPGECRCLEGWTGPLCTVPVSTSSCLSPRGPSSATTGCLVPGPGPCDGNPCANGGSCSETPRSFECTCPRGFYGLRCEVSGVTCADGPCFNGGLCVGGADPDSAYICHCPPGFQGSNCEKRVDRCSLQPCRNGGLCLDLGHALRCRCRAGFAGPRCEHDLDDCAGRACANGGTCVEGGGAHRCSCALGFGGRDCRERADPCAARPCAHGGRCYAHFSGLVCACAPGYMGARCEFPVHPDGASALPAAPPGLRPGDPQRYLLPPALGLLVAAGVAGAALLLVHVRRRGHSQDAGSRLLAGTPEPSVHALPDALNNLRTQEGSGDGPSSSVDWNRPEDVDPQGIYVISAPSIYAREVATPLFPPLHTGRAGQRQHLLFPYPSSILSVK
- experimental.protocol: FACS on SHP77 cells
# MFI at 0.8 nM per entry
Give the value in MFI but do not write MFI after it.

| binder | MFI at 0.8 nM, MFI |
| --- | --- |
| Hab006VL4VH2-hFc (scFv, part only; not given: scFv linker and human IgG1 Fc, V domains shown, not shown: another chain or arm of the molecule; a dimerising Fc or GST; small tags and cut ends) VL: DIVMTQSPDSLAVSLGERATINCRATKSISKYLAWYQQKPGQTNKLLIFSGSTLQSGVPDRFSGSGSGTDFTLTISSLQAEDVAVYYCQQHHEYPYTFGGGTKVEIK VH: EVQLVQSGAEVKKPGASVKVSCKASGYTFTSYWMHWVRQAPGQRLEWMGVIDPSDSLANYNQEFKGRVTLTVDTSASTAYMELSSLRSEDTAVYYCARDSTVVAPMDYWGQGTTVTVSS | 1330 |
| Hab015VL5VH5a-hFc (scFv, part only; not given: scFv linker and human IgG1 Fc, V domains shown, not shown: another chain or arm of the molecule; a dimerising Fc or GST; small tags and cut ends) VL: NIQMTQSPSSLSASVGDRVTITCKASENVGTYVSWYQQKPGKSPKLLIYGASNRYTGVPSRFSGSGSGTDFTLTISSLQPEDFATYYCGQFYSFPSTFGGGTKVEIK VH: EVQLVESGGGLVKPGGSLRLSCVASGITFSNFWMNWVRQAPGKGLEWVGQIRLKSDDYATHYAESVKGRFTISREDSKNTVYLQMNSLKTEDTAVYYCTTGYYFDYWGQGTTVTVSS | 666 |

Now consider a different binder.
stdin: Could you tell me which MFI at 0.8 nM is on file for Hab008L1H2a-hFc (scFv, part only; not given: VL-VH linker and human IgG1 Fc, V domains shown, not shown: another chain or arm of the molecule; a dimerising Fc or GST; small tags and cut ends) VL: DIQMTQSPSSLSASVGDRVTITCKASQNVGTAVAWYQQKPGKSPKLLIFSASIRYTGVPSRFSGSGSGTDFTLTISSLQPEDFATYYCQQYSSSPYTFGGGTKVEIK VH: EVQLVQSGAEVKKPGASVKVSCKASGYTFTDYYMNWVRQAPGQRLEWMGIINPYNSGTSYNQKFRGRVTLTVDKSASTAYMELSSLRSEDTAVYYCSRYDYDYDVEGAMDYWGQGTTVTVSS ?
stdout: 187
